Tested on: various anti-gD2 antibodies
Test: Reactivity of gD variants with anti-gD2 antibodies (competitive ELISA)
Assay type: binding, human
Settings: immobilized gD variant
MEASURED ENDPOINT: Reactivity with anti-gD2 antibody 75

Some solved cases for reference:
>>> experimental_value("gD1-275v5: gD1-275 with glycochains at R186 (SC-A) and P50 (SC-F) (protein) KYALADPSLKMADPNRFRGKNLPVLDQLTDPPGVKRVYHIQPSLEDPFQNASIPITVYYAVLERACRSVLLHAPSEAPQIVRGASDEARKHTYNLTIAWYRMGDNCAIPITVMEYTECPYNKSLGVCPIRTQPRWSYYDSFSAVSEDNLGFLMHAPAFETAGTYLRLVKINDWTEITQFILEHRANASCKYALPLRIPPAACLTSKAYQQGVTVDSIGMLPRFIPENQRTVALYSLKIAGWHGPKPPYTSTLLPPELSDTTNATQPELVPEDPEDHHHHHH")
"− ((−): less than 30%)"
>>> experimental_value("gD1-275 (protein) KYALADPSLKMADPNRFRGKNLPVLDQLTDPPGVKRVYHIQPSLEDPFQPPSIPITVYYAVLERACRSVLLHAPSEAPQIVRGASDEARKHTYNLTIAWYRMGDNCAIPITVMEYTECPYNKSLGVCPIRTQPRWSYYDSFSAVSEDNLGFLMHAPAFETAGTYLRLVKINDWTEITQFILEHRARASCKYALPLRIPPAACLTSKAYQQGVTVDSIGMLPRFIPENQRTVALYSLKIAGWHGPKPPYTSTLLPPELSDTTNATQPELVPEDPED")
"+ ((+): 70% or more)"
>>> experimental_value("gD1-315v3: gD1-315 with glycochain introduced at P50 (SC-F) (protein) KYALADPSLKMADPNRFRGKNLPVLDQLTDPPGVKRVYHIQPSLEDPFQNASIPITVYYAVLERACRSVLLHAPSEAPQIVRGASDEARKHTYNLTIAWYRMGDNCAIPITVMEYTECPYNKSLGVCPIRTQPRWSYYDSFSAVSEDNLGFLMHAPAFETAGTYLRLVKINDWTEITQFILEHRARASCKYALPLRIPPAACLTSKAYQQGVTVDSIGMLPRFIPENQRTVALYSLKIAGWHGPKPPYTSTLLPPELSDTTNATQPELVPEDPEDSALLEDPAGTVSSQIPPNWHIPSIQDVAPHHAPAAPSNPGHHHHHH")
"− ((−): less than 30%)"
>>> experimental_value("gD1-315V (protein) KYALADPSLKMADPNRFRGKNLPVLDQLTDPPGVKRVYHIQPSLEDPFQPPSIPITVYYAVLERACRSVLLHAPSEAPQIVRGASDEARKHTYNLTIAWYRMGDNCAIPITVMEYTECPYNKSLGVCPIRTQPRWSYYDSFSAVSEDNLGFLMHAPAFETAGTYLRLVKINDWTEITQFILEHRARASCKYALPLRIPPAACLTSKAYQQGVTVDSIGMLPRFIPENQRTWALYSLKIAGWHGPKPPYTSTLLPPELSDTTNATQPELVPEDPEDSALLEDPAGTVSSQIPPNWHIPSIQDVAPHHAPAAPSNPGHHHHHH")
"+ ((+): 70% or more)"

Next molecule, Reactivity with anti-gD2 antibody 75 to be filled in.
## Input Quick check: Reactivity with anti-gD2 antibody 75 of gD1-315v3V: gD1-315 with glycochain at SC-F and V231W (protein) KYALADPSLKMADPNRFRGKNLPVLDQLTDPPGVKRVYHIQPSLEDPFQNASIPITVYYAVLERACRSVLLHAPSEAPQIVRGASDEARKHTYNLTIAWYRMGDNCAIPITVMEYTECPYNKSLGVCPIRTQPRWSYYDSFSAVSEDNLGFLMHAPAFETAGTYLRLVKINDWTEITQFILEHRARASCKYALPLRIPPAACLTSKAYQQGVTVDSIGMLPRFIPENQRTWALYSLKIAGWHGPKPPYTSTLLPPELSDTTNATQPELVPEDPEDSALLEDPAGTVSSQIPPNWHIPSIQDVAPHHAPAAPSNPGHHHHHH ?
## Output − ((−): less than 30%)
